Source listed as patent US7098233B2.

Ki reference
biological target: 5-HT4 (Homo sapiens); assay: Binding affinity for serotonin subtype 5-HT4
Sequence (Q13639 whole entry, species assumed): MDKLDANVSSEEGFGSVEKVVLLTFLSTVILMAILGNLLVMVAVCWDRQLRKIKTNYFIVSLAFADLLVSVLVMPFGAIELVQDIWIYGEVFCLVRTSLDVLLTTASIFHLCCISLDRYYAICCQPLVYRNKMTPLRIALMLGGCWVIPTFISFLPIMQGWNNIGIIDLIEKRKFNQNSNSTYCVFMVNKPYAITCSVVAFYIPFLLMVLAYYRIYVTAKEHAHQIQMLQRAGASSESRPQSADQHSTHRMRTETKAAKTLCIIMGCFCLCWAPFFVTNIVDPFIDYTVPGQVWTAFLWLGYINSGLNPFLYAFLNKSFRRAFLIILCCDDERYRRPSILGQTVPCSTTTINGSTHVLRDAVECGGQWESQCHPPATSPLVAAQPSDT

Answered cases to consult:
INSERT INTO assay_data (chemical_structure, readout_value) VALUES
  ('Cc1[nH]c2ccc(Cl)cc2c1CCN(C)C', '> 1000 nM'),
  ('CCc1[nH]c2ccc(Cl)cc2c1CCN(C)C', '> 1000 nM');

Please examine the following record next.
INPUT: Provide measured Ki value, entry: Cc1[nH]c2ccc(Br)cc2c1CCN(C)C
OUTPUT: > 1000 nM

---

pKi reference
Molecular target: 5-HT3 (Homo sapiens, UniProt P46098)
Sequence (P46098 24-478): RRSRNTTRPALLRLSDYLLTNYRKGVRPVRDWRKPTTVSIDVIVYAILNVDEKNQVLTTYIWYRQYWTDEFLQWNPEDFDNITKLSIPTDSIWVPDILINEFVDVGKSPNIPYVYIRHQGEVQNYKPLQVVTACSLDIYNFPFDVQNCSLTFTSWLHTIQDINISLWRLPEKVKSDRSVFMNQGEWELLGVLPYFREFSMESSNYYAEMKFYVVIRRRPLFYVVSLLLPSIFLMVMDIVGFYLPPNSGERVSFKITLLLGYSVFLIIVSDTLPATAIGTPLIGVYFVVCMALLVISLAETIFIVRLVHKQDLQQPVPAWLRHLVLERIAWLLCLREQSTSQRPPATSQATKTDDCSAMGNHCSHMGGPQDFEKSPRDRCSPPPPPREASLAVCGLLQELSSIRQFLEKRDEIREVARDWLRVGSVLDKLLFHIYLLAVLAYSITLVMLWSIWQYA
pKi: −log10 of the molar value.

INSERT INTO results (compound, study_system, readout_value) VALUES
  ('Cc1[nH]c2ccc(Br)cc2c1CCN(C)C [ST 1938, 5-bromo-2-methyl-N,N-dimethyltryptamine]', '5-HT3 (Homo sapiens, UniProt P46098)', '< 6.00'),
  ('CCc1[nH]c2ccc(Cl)cc2c1CCN(C)C [ST 2253, 5-Chloro-2-ethyl-N,N-dimethyltryptamine]', '5-HT3 (Homo sapiens, UniProt P46098)', '< 6.00');

Please examine the following record next.
INPUT: Provide measured pKi value, entry: Cc1[nH]c2ccc(Cl)cc2c1CCN(C)C [ST 1936, 5-chloro-2-methyl-N,N-dimethyltryptamine]
OUTPUT: < 6.00

---

biological target: vasopressin V1; assay: Receptor panel binding: vasopressin V1; details: read-out: affinity (Ki), vasopressin V1
property-label: Ki

INPUT: Provide measured Ki value, entry: Cc1[nH]c2ccc(Br)cc2c1CCN(C)C
OUTPUT: > 1 µM

---

biological target: NA transporter (Homo sapiens)
Sequence (P23975 whole entry): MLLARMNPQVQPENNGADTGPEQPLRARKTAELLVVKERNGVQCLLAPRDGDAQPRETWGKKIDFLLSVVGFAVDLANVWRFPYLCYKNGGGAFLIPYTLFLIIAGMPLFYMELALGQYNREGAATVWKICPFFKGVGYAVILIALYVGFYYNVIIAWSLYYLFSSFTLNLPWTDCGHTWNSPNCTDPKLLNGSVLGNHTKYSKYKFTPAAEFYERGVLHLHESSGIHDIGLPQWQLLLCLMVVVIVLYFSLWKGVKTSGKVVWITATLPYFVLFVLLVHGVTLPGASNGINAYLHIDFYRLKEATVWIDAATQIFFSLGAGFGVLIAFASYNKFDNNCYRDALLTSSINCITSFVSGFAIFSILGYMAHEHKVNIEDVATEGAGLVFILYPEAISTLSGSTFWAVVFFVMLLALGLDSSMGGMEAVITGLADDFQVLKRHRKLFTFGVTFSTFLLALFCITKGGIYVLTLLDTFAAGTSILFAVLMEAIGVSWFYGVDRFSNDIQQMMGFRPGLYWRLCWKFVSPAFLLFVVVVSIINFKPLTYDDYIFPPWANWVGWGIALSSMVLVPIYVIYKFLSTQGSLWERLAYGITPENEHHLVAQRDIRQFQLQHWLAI
property-label: Ki

Answered cases to consult:
INSERT INTO assay_data (chemical_structure, readout_value) VALUES
  ('Cc1[nH]c2ccc(Cl)cc2c1CCN(C)C', '≥ 1000 nM'),
  ('Cc1[nH]c2ccc(Br)cc2c1CCN(C)C', '> 1000 nM');

Please examine the following record next.
INPUT: Provide measured Ki value, entry: CCc1[nH]c2ccc(Cl)cc2c1CCN(C)C
OUTPUT: ≥ 1000 nM

---

target: nicotinic receptors; experiment: Receptor panel binding: nicotinic receptors; details: read-out: affinity (Ki), nicotinic receptors
pKi: −log10 of the molar value.
property-label: pKi

INPUT: Report value only: pKi, nicotinic receptors, Cc1[nH]c2ccc(Br)cc2c1CCN(C)C
OUTPUT: < 6.00

---

pKi reference
target: 5-HT2b (Homo sapiens, UniProt P41595)
Sequence (P41595 whole entry, species assumed): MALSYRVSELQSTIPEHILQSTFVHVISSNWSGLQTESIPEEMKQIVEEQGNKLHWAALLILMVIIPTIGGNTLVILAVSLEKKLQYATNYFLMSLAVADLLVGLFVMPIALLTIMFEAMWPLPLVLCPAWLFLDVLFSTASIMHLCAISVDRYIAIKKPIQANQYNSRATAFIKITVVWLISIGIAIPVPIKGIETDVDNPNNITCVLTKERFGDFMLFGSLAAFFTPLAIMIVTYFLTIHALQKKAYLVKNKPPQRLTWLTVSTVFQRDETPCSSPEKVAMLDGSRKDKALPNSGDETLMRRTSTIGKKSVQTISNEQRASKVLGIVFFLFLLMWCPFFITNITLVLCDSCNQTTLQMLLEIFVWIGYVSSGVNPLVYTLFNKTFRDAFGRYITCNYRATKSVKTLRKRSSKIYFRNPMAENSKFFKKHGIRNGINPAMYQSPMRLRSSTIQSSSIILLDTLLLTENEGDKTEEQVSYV
Field pKi (float): negative decimal logarithm of the concentration in molar.

INSERT INTO measurements (chemical_structure, study_system, readout_value) VALUES
  ('Cc1[nH]c2ccc(Br)cc2c1CCN(C)C', '5-HT2b (Homo sapiens, UniProt P41595)', 6.81);

INPUT: Provide measured pKi value, entry: CCc1[nH]c2ccc(Cl)cc2c1CCN(C)C
OUTPUT: 7.08
